assay: yeast display, Sf9 membrane polyspecificity reagent, FACS + sequencing; frameworks hold sequencing errors
readout_label: polyreactivity (PSR sort gate)

sequence_entry	experimental_value
QVQLVESGGGLVQAGGSLRLSCAASGRTFSAYAMGWYRQAPGKERELVATISRSGGRTYYADSVKGRFTISRDNAKNTVYLQMNSLKPEDTAVYYCNARILRDNQGTYDYWGQGTQVTVSS	high polyreactivity
QVQLVESGGGLVQAGGSLRLSCAASGSTFGWYAMGWYRQAPGKEREFVAAIRGGGSSTYYADSVKGRFTISRDNAKNTVYFQMNSLKPEDTAVYYCAAVTSQLYGNRYYYWGQGTQVTVSS	high polyreactivity
QVQLVESGGGLVQAGGSLSLICAASGYTLKYYAMGWYRQAPGKERELVAVISRGGSTYYADSVKGRFTISRDNAKNTVYLQMNSLNPEDTAVYYCAKRPTQGYYPYGYWGQGTQVTVSS	high polyreactivity
QVQLVESGGGLVQAGGSLRLSCAASGFTIYYYTMGWYRQAHGKERELVAAITWRGGSTNYADSVKGRFTISRDNAKNTVYLQMNSLKPEDTAVYYCAAVTYWFWPGMDYWGQGTQVTVSS	low polyreactivity
QVQLVESGGGLVQAGGSLRLSCAASGSTFPHYAMGWYRQAPGKERELVAAISVRGGRTYYADSVKGRFTISRDNAKNTVYLQMNSLKPEDTAVYYCNKYYYFTKYGYWGQGTQVTVSS	high polyreactivity

INPUT: Give the measured polyreactivity (PSR sort gate) of `QVQLVESGGGLVQAGGSLRLSCDASGFIFYYNAMGWYRQAPGKESELVAGISWDGSTYYADSVKGRFTISRDNAKNTVYLQMNSLKPEETAVYYCAAALLDDYFDLFIFGYWGQGTQVTVSS` .
OUTPUT: low polyreactivity

INPUT: Give the measured polyreactivity (PSR sort gate) of `QVQLVESGGGLVQAGGSLRLSCAASGRIFTDYAMGWYRQAPGKERELVAAISSGGSTYYADSVKGRFTISRDNAKNTVYLQMNSLKPEDTAVYFCAAELFYGRSSSGYYYWGQGTQVTVSS` .
OUTPUT: high polyreactivity

INPUT: Give the measured polyreactivity (PSR sort gate) of `QVQLVESGGGLVQAGGSLRVSCAASGSIFSIYAMGWYRQAPGKERELVASITRSSGRTYYADSVKGRFTISRDNAKKTVYLQMNSLKPEDTAVYYCAKDYIPLALDADDYWGQGTQVSVSS` .
OUTPUT: low polyreactivity

INPUT: Give the measured polyreactivity (PSR sort gate) of `QVQLVESGGGLVQAGGSLRLSCAASGSILYVYDMGWYRQAPGNERELVATITGRVVSTNYADSVKGRFTISRDNAKNTVYLQMNSLKPEDTAVYYCAARTRRRRGEYDYWGQGTQVTVSS` .
OUTPUT: high polyreactivity

INPUT: Give the measured polyreactivity (PSR sort gate) of `QVQHVESGGGLVQAGASLRLSCAASGLTFRSNAMGWYSQAPGKERELVAAISSSGGSTYYADSVKGRFTISRDNAQNTVYLQMNSLKPEDTAVYYCAAEDPGDQYDYWGQGTQVTVSS` .
OUTPUT: high polyreactivity

INPUT: Give the measured polyreactivity (PSR sort gate) of `QVQLVESGGGLVQAVGRLRLSCAASGITLSLYAMGWYRQATGKETELVAAISRGGGRTYYADSVKGRFTISRDNAKNTVYLQMNSLKPEDTAVYYCNKGRNPGPAYFASVDYWGQGTQVTVSS` .
OUTPUT: high polyreactivity

INPUT: Give the measured polyreactivity (PSR sort gate) of `QVQLVESGGGLVQAGGSLRLSCAASGRIFGYAMGWYRQAPGKERELVAAITSSGGRTYYADSVKGRFTISRDNVKNTVYLQMNSLKPVDTAVYYCAKKWPVYRSYDYWGQGTQVTVSS` .
OUTPUT: high polyreactivity

INPUT: Give the measured polyreactivity (PSR sort gate) of `QVQLVESGGGLVQAGGSLRVSCAASGFTFGPNAMGWYSQAPGKERELVAAISQSGGSTYADSEKGRFTISRDNAKNTDYLHMNSLKPEDTAVYYCAAEFPDYYWWYEYWGQGTQVTVSS` .
OUTPUT: high polyreactivity

INPUT: Give the measured polyreactivity (PSR sort gate) of `QVQLVESGGGLVQAGGSLRLSCDASGRICGTNAMGWYRQAPGKERELVADITSGGSTNYADSVKGRFTISRDYAKNTVYVQMNSLKPEDTAVYYCAADVIGDLRWYRDEYWGQGTQVTVSS` .
OUTPUT: low polyreactivity

INPUT: Give the measured polyreactivity (PSR sort gate) of `QVQLVESGGGLVQAGGSLRISCAASGIIFAANTMGWYRQAPGKERELVAAITSGGSTKYADSVKGRFTISRDNAKNTVYLQMNSLKPEDTAVYYCAAQYRYQRYSYAMEYWGQGTQVTVSS` .
OUTPUT: high polyreactivity

INPUT: Give the measured polyreactivity (PSR sort gate) of `QVQLVESGGGLVQAGGSLRLSCAASGRIFSHYAMGLYREAPGKERELVAAITGSGGITYYADSVKGRFTISRDKSKNTVFLQMISLKPEDTAVYYCAADGLSKFDYLGQGTQVTVSS` .
OUTPUT: low polyreactivity

INPUT: Give the measured polyreactivity (PSR sort gate) of `QVQLVESGGGLVQAGGSLRLSWAASGRTFQYYTMGWYRQAPGKERELVAAISTGGSTHYADSVKGRFTISRDNAKNTVYLQMNSLKPEDTAVYYCAALWSRRRSRPRFPGDYWGQGTQVTVSS` .
OUTPUT: high polyreactivity

INPUT: Give the measured polyreactivity (PSR sort gate) of `QVQLVESGGGLVQAGGSLRLRGAASGRTFPGYAMGWCRPAPGNERELVATICSADSTNYADSVMGRFTSSRDNAKNTVKLHMKSLKPEDTAVYFCAQRYGRNGAAAQYNVWYRYDYWGQGTQVTVSS` .
OUTPUT: low polyreactivity

INPUT: Give the measured polyreactivity (PSR sort gate) of `QVQLVESGGGLVQAGGSLRLSCAASGSIFGLYAMGWYRQAPGKEREFVASITYSGGSTYYADSVKGRFTISRDNAKNTVYLQMTSLKPEDTAVYYCAAESYWGYDYWGQGTQVTVSS` .
OUTPUT: high polyreactivity

INPUT: Give the measured polyreactivity (PSR sort gate) of `QVQLVESGGGLVQAGGSLRLSCAASGFIFGSYAMGWYRQAPGKERELVAAITRSGGNTYYADSVKVRFTISRDNAKNTVYLQMNSLKPEDTAVYYCAAYSGYWYDYWGQGTQVTVSS` .
OUTPUT: high polyreactivity

INPUT: Give the measured polyreactivity (PSR sort gate) of `QVQLVESGGGLLQAGGSLRLSCAASGSIFPQYAMGWYRPAPGKERELVAAITWSGSRTRYADSVKGRFTISRDNAKNTVYLQMNSLKPEDTAVYYCNAYWGRSGYAGGYWGQGTQVTVSS` .
OUTPUT: high polyreactivity

---

assay: yeast display, Sf9 membrane polyspecificity reagent, FACS + sequencing; frameworks hold sequencing errors
readout_label: polyreactivity (PSR sort gate)

sequence_entry	readout_label	experimental_value
QVQLVESGGGLVQAGGSLRLSCAASGIIFNSNAMGWYRQAPGKERELVAAISVSGGSTYYADSVKGRFTISRDNAKNTVYLQMYSLIPEDTAVYYCNARSLYPWRWKKEYGHWGQGTQVTVSS	polyreactivity (PSR sort gate)	high polyreactivity
QVQHVESVGGLLQAGGSLPLSCASSGSTFTGYAMGRYREAPGIVRELVAAISSSGGRTYYADSVKGRFTISRDNAKNTVYLQMNSLKPEDTAVYYCAVRPRYRPSGYVEYDSWGQSTQVTVSS	polyreactivity (PSR sort gate)	high polyreactivity
QVQLVESGGGLVQAGGSLRLSCAASGFSFSRNAKGWYRQAPGKERELVAAISIRGGSTYYADSVKGRFTISRDNAKNTVYLQMNILKPEDTAVYYCNAYDLYRQRNGYGYWGQGTQVTVSS	polyreactivity (PSR sort gate)	high polyreactivity
QVQLVESGGGLVQAGGSLRLSCAATGSNFTGNAMVWYRQAPGKERELVAAISRSGGSTYYADSVKGRYTISRDNAKNTVYLQMISLKPEDTAVYYCAAYRTHGPPRAIRFDYWGQGTQVTVSS	polyreactivity (PSR sort gate)	high polyreactivity
QVQLVESGGGLVQAGGSLRLSCAASGRTFYRYAMGWYRQAPGKERELVASISSGGSTDYADSVKGRFTISRDNAKNTVYLQMNSLKPEDTAVYYCNAEIVGFWTSYDYWGQGTQVTVSS	polyreactivity (PSR sort gate)	low polyreactivity
QVQLVESGGGLVQAGGSLRLSCAASGSIFIVNAMGWNRQAPGKERELVAAISWSGGSTYYADSVKGRFTISRDNAKNTVYLQMNSLKPEDTAVYYCAAKYTLPFRDVKYYSWGQGTQVTVSS	polyreactivity (PSR sort gate)	high polyreactivity
QVQLVESGGGLVQAGGSLRLSCAASGFTFYIYAMGWYRQAPGKERELVARISSGGRTYYADSVKGRFTISRDNAKNTVYLQMNRLKPEDTAVYDCHFWYGSWGQGTQVTVSS	polyreactivity (PSR sort gate)	low polyreactivity
QVQLVESGGGLVQAGGSLRLSCAASGSIFVIYAMGWYRPAPGKERELVAAITGRGGRTYYADSVKGRFTISRDNAKNTVYLQMISLKPEDNAVYYCAADSVYTLGLKYDYWGHGTQVTVSS	polyreactivity (PSR sort gate)	high polyreactivity

INPUT: Give the measured polyreactivity (PSR sort gate) of `QVQLVESGGGLVQAGGSLRLSCAASGSIFYYYAMGWYRQAPGKERELVAAISSGGVRTYYADSVKGRFTISRDNAKNTVYLQMKSLKPEDTAVYYCAKDVHSGVTLIHERYYWGQGTQVTVSS` .
OUTPUT: low polyreactivity

INPUT: Give the measured polyreactivity (PSR sort gate) of `QVQLVESGGGLVQAGGSLRLSCAASGRTFVRYAMGWYRQAPGQERELVARITSRGTSTYYADSVKGRFTISRDNAKNTVYLQKNSLKPEDTAVYYCNKVRTFRDKSRYDYWGQGTQVTVSS` .
OUTPUT: low polyreactivity

INPUT: Give the measured polyreactivity (PSR sort gate) of `QVQLVESGGGLVQAGGSLRLSCAASGSIFAAYTMGWYRQAPGKERELVAAISVSTVSTYYADSVKGRFTISRDTAKNTVYLQMNRLKPEDTAVYYCNADATDSYPEKDEHDSWGQGTQVTVSS` .
OUTPUT: low polyreactivity
